tested on: Streptococcus pneumoniae; assay: Antibacterial activity against telethromycin-resistant Streptococcus pneumoniae 3390 expressing erm gene by NCCLS method; format: functional
Documented MIC across a set of molecules

QUERY_SMILES	SYSTEM	MIC
C=CCN(C)[C@H]1C[C@@H](C)O[C@@H](O[C@@H]2[C@@H](C)[C@H](OC(=O)Cc3ccccn3)[C@@H](C)C(=O)O[C@H](CC)[C@@]3(C)OC(=O)N(CCCCn4cnc5ncccc54)[C@@H]3[C@@H](C)C(=O)[C@H](C)C[C@@]2(C)OC)[C@@H]1O	Streptococcus pneumoniae	0.125 µg/mL
C=CCN(C)[C@H]1C[C@@H](C)O[C@@H](O[C@@H]2[C@@H](C)[C@H](OC(=O)Cc3ccccn3)[C@@H](C)C(=O)O[C@H](CC)[C@@]3(C)OC(=O)N(CCCCn4cnc(-c5ccc(N)nc5)c4)[C@@H]3[C@@H](C)C(=O)[C@H](C)C[C@@]2(C)OC)[C@@H]1O	Streptococcus pneumoniae	0.06 µg/mL
